What amyloid nucleation score was measured for each of the following?
- TEST_SUMMARY: amyloid nucleation score (Sup35N fusion, yeast selection) (log enrichment); library NNK1; higher = more nucleation; inactive = no reads after selection;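 note: zero at mode of non-aggregating sequences after 7 days selection at 30°C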
Give the figure by itself; no unit, no explanation.

Report amyloid nucleation score for `SSFQGPSYSSCIRQHRNTRI` please.
-0.614

Item under review: `KEFMRWHQTPRFVKKTHVRG` . Reported amyloid nucleation score?
-0.834

What measured amyloid nucleation score goes with `PVFGGNGWLGYGWNWRSHLG` ?
0.383

Given the entry `CLFWDSCYRKLLTIYDNM` , report its measured amyloid nucleation score.
-0.941

Which amyloid nucleation score value belongs to `YNLRMDGVCGTVLRYVVEGR` ?
-0.403

Report amyloid nucleation score for `IMLTGLRLHVVDGEKLPMTS` please.
1.01

Quick one: amyloid nucleation score for `SFFFSRVGSLFCLRFYDVFG` ?
-0.858

Fill blank: measured amyloid nucleation score of the substance `FSKVGCDKVIRPGKVPFRSF` is ____.
0.491

Form field: reported amyloid nucleation score of `KCSSLLSHMWLCITLVTVLA`
0.357

Requested read-out: amyloid nucleation score. Entry: `TGLSCCCMNISRNGREMVPR`
6.28

I would be grateful if you could share the reported amyloid nucleation score for `SCRSLDAMDKSWS` .
1.5

So what does the record say about amyloid nucleation score for `RLIYRCLKSGCVFPWLSRMS` ?
-0.571

Returns the measured amyloid nucleation score for the input substance. Input: `DLDCFRFVLSLGDFMGRCVS`
0.266

// amyloid nucleation score lookup, key: `REGLTFPRVLPIWHLFVSSD`
-0.139

Using the record for `RAQYYYICRWRYYTWPVPR` , report its amyloid nucleation score.
-0.515

Need amyloid nucleation score of `FYSCIYYGHMLVELPDMLEL` , thanks.
-0.056

Data request, read-out amyloid nucleation score, for `LNPCHWGAFLY`
0.648

amyloid nucleation score lookup needed for `MQFLVVLCQCQFLNRVRGCA` , thanks.
1.5

Returns the measured amyloid nucleation score for the input substance. Input: `GLRATVYITLRFE`
-0.442

I would be grateful if you could share the reported amyloid nucleation score for `LCKRNVKCQFL` .
0.192

Which amyloid nucleation score reading was recorded for the substance `YCIYVGFDLMCLSVWNGHRS` ?
-1.39

Find the recorded amyloid nucleation score belonging to `PISCFTDHMQMFMRSNGRGL` and report it.
1.16

Give the measured amyloid nucleation score of `KSVDFTYDEGRSTAVIVYHF` .
0.223

# get_value(readout='amyloid nucleation score', item= `WLTVITADSMAEGRQACRLP` )
0.132

May I ask what amyloid nucleation score has been recorded for `LLASRPEG` ?
-0.437

Using the record for `LKTSRMFLG` , report its amyloid nucleation score.
-0.68

amyloid nucleation score lookup needed for `LNFIHNGM` , thanks.
-0.444

Given the entry `TAFVILLDHGGCDSRVIYEG` , report its measured amyloid nucleation score.
0.043

Form field: reported amyloid nucleation score of `ADVATMSRGEKGASGGLK`
0.508

Entry under review: `YRLDFGWTMH` . Reported amyloid nucleation score?
0.3

What value of measured amyloid nucleation score is listed for `FQDLSLAVSQCLPCVIIGDC` ?
-0.131

Item under review: `VFTACVCGRVEDISDCVPAL` . Reported amyloid nucleation score?
-0.071

Given `GSGWEGSTVRFSQASFGELW` , state its recorded amyloid nucleation score.
0.328

Given `CTAWNVS` , state its recorded amyloid nucleation score.
-0.657

Endpoint output: amyloid nucleation score of `WFTDLRNRGVVNTYTPIV` . Value?
-0.131
